# tested-system: AHR (Homo sapiens, UniProt P35869)
# Sequence (P35869 11-848): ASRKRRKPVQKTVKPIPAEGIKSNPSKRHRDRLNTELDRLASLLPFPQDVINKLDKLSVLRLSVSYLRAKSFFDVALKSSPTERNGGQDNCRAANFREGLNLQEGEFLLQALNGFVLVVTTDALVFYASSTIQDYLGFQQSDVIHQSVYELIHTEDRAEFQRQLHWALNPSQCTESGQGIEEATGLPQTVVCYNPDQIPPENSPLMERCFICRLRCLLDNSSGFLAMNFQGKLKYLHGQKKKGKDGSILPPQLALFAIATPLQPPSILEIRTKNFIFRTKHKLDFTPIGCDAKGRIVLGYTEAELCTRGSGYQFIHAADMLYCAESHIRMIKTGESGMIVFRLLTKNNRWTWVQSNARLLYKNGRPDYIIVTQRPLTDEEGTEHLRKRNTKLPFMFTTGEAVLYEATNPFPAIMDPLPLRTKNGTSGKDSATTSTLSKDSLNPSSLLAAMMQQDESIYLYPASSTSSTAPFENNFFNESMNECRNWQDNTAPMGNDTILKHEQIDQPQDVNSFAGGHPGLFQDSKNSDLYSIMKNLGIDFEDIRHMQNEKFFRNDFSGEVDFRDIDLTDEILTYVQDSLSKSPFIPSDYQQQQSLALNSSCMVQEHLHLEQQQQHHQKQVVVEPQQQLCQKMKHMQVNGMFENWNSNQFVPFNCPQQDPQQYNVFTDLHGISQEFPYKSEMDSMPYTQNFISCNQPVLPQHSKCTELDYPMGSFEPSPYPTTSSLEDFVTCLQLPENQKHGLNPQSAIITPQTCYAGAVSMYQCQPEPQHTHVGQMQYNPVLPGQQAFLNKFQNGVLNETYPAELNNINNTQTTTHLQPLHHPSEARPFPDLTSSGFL
# protocol: In vitro assay 3: AHR-regulated CYP1A1 expression in human cell line (U937, qPCR, KA stimulation)
# Assay type: cell-based
# condition-description: U937 cells, 200 uM KA, 6 hours, CYP1A1 expression by qPCR; read-out: Assay 3: Hum CYP1A1 Antagonism IC50
pIC50: −log10 of the molar value.

compound	pIC50
C[C@@H](CO)NC(=O)c1cc(-c2ccc(N(C)C)cc2)nn(-c2cnn(C)c2)c1=O	8.99
O=C(NCC(O)C(F)(F)F)c1cc(-c2ccc(Cl)cc2)nn(-c2cccnc2)c1=O (single isomer, unassigned; (-)) [Example 89]	8.58
O=C(N[C@H]1CCC[C@@H]1O)c1cc(-c2ccc(C(F)F)cc2)nn(-c2cccnc2)c1=O	8.04
O=C(N[C@H]1COC[C@H]1O)c1cc(-c2ccc(OC(F)(F)F)cc2)nn(-c2cccnc2)c1=O (single isomer, unassigned; enantiomer 2) [Example 159]	7.01
Cn1cc(-n2nc(-c3ccc(Cl)cc3)cc(C(=O)N[C@H](CO)C(F)(F)F)c2=O)cn1	7.39
O=C(N[C@H](CO)C(F)(F)F)c1cc(-c2ccc(OC(F)(F)F)cc2)nn(-c2cccnc2)c1=O	8.00
Cn1cc(-n2nc(-c3ccc(Cl)cc3)cc(C(=O)N[C@H]3COCC[C@H]3O)c2=O)cn1	7.41

---

# tested-system: AHR (Homo sapiens)
# protocol: In vitro assay 3: AHR-regulated CYP1A1 expression in human cell line (U937, qPCR, KA stimulation)
# Assay type: cell-based
# condition-description: U937 cells, 200 uM KA, 6 hours, CYP1A1 expression by qPCR; read-out: Assay 3: Hum CYP1A1 Antagonism IC50
# Method: In Vitro Assay 3: AHR-Regulated CYP1A1 Expression in Human Cell Line To assess the AHR inhibitory activity of the substances described in this application, the ability thereof to antagonise ligand-induced AHR gene regulation in a dose-dependent manner was quantified. For this purpose, quantitative PCR analysis was used to determine expression of the AHR-regulated gene CYP1A1 in a human monocytic U937 cell line upon stimulation with 200 uM KA in the presence and absence of AHR inhibitor. […]
pIC50: −log10 of the molar value.
pIC50 values, listed per item
measure: pIC50

> print(dat)
                                   molecule  numeric.value
1  O=C(N[C@H](CO)C(F)(F)F)c1cc(-c2ccc(C(F)(F)F)cc2)nn(-c2cccnc2)c1=O           9.04
2  Cc1ccc(-c2cc(C(=O)NCC(O)C(F)F)c(=O)n(-c3cnn(C)c3)n2)cc1 (single isomer, unassigned; enantiomer 2) [Example 15]           6.91
3  Cc1ccc(-c2cc(C(=O)NC(CO)C(C)C)c(=O)n(-c3cnn(C)c3)n2)cc1 (stereo not shown) [Example 1]           8.37
4  Cn1cc(-n2nc(-c3ccc(C(F)(F)F)cc3)cc(C(=O)N[C@H](CO)CF)c2=O)cn1           8.57

---

IC50 values, listed per item
# tested-system: AHR (Homo sapiens)
# protocol: In vitro assay 1: antagonism in human cell line (transactivation assay, U87 cells prestimulated with kynurenic acid, DRE firefly luciferase reporter)
# Assay type: cell-based
# Parameters: host or cells: U87 glioblastoma cells, stably transfected with DRE firefly luciferase and renilla reporter constructs
# condition-description: 150 uM kynurenic acid, 20 hours, read-out: Assay 1: AHR-luc Hum Antagonism IC50
measure: IC50

> print(dat)
                                   molecule  measure   result
1  CC(C)(O)C(NC(=O)c1cc(-c2ccc(C(F)(F)F)cc2)nn(-c2cccnc2)c1=O)C(F)(F)F (single isomer, unassigned; (-)) [Example 241]     IC50  10.9 nM
2  CCC(CO)NC(=O)c1cc(-c2ccc(C)cc2)nn(-c2cnn(C)c2)c1=O (stereo not shown) [Example 4]     IC50  9.52 nM
3  C[C@H](NC(=O)c1cc(-c2ccc(OC(F)F)cc2)nn(-c2cnn(C)c2)c1=O)C(C)(C)O     IC50  16.4 nM
4  Cn1cc(-n2nc(-c3ccc(Cl)cc3)cc(C(=O)N[C@H]3COCC[C@H]3O)c2=O)cn1     IC50  28.4 nM
